assay: chemical genetic growth profiling, strain panel (AID 1159580);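 note: tested at 20 µM; growth read once vehicle control cultures reached saturation at 30 °C; 1 = growth at the plate median or of vehicle wells; lower values mean less growth of the strain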; conditions: S. cerevisiae deletion strains, growth OD, locus YOR231W, strain MKK1
Among all 5,500 compounds or so, about 2,000 (36%) were called active. Another 18% or so got no clear call; they are omitted. Cut-off read from the data, not from the text of the source: active = normalized growth mostly below about 0.91 (no sharp cut-off); inconclusive = no clear call, values can overlap the other calls; inactive = mostly above about 0.92. Some of the results follow.
Would you mind answering with one of these outcomes? 1.0 for active, 0.0 for inactive

compound | class
O=C(NC(=O)c1c(F)cccc1F)Nc1cc(Cl)c(OC(F)(F)C(F)C(F)(F)F)cc1Cl (stereo unspecified) | 0.0
CCn1cc(C(=O)O)c(=O)c2cnc(N3CCCC3)nc21 | 0.0
CSc1c(C#N)c(-c2ccc(Cl)cc2)nn1C(=O)c1ccccc1Cl | 0.0
CC(C)(O)C#Cc1ccc(/C=N\Nc2ccccc2)cc1 | 1.0
CC[C@@H](C(=O)[C@@H](C)[C@@H](O)[C@H](C)[C@@H]1O[C@@H]([C@@H](CC)C(=O)O)CC[C@@H]1C)[C@H]1OC2(C=C[C@@H](O)[C@]3(CC[C@@](C)([C@H]4CC[C@](O)(CC)[C@H](C)O4)O3)O2)[C@H](C)C[C@@H]1C (stereo partly specified) | 1.0

Query: Fill in: this test's call for `CCn1cc(C(=O)O)c(=O)c2cc3c(cc21)OCO3` is ___
Response: 0.0

Query: Fill in: this test's call for COc1ccc(C[C@H](N)C(=O)N[C@@H]2[C@@H](CO)OC(n3cnc4c(N(C)C)ncnc43)[C@@H]2O)cc1 (stereo partly specified) is ___
Response: 0.0

Query: Fill in: this test's call for CC1=CC(=O)CC(C)(C)C1(O)/C=C/C(C)=C\C(=O)O (stereo unspecified) is ___
Response: 0.0

Query: Fill in: this test's call for `O=C1OCCN1/N=C\c1ccc([N+](=O)[O-])o1` is ___
Response: 1.0

Values were extracted from PubChem BioAssay AID1159580.
